This listing pairs compounds with measured LC50 at 24 h.
- protocol: Toxicity in Artemia salina after 24 hrs
- Assay type: organism-based
- experimental_parameters: in vivo, read-out: LD50

compound	LC50 at 24 h
C=CCC/C=C/CCCC/C=C/[C@@H](O)[C@H](O)[C@@H]1O[C@@H]([C@H](O)[C@H](O)C(=C)CC[C@@H](O)[C@H]2C[C@@H](O)[C@@H](O)[C@H]([C@@H](O)[C@H](O)/C=C(C)/C=C/CC(O)CC(O)CNC(=O)C(O)C(O)C/C=C\C(O)C(O)/C(C)=C/CCCC(O)/C=C/CC(O)/C=C/CC(O)CN)O2)C[C@@H](O)[C@H]1O (some centres not stated)	0.9 µg/mL
CC1=C(O)[C@@](O)([C@@H]2C[C@H]3OC(=O)[C@H](C)[C@@H]4CCC[C@@]5(CC[C@H](O5)[C@H](O)[C@@]5(C)CC(=O)[C@H](O5)[C@H]5C[C@]6(C)CC[C@](O5)(O6)[C@H]5CC[C@](C)(C[C@@H](C)/C=C(C)/C=C/[C@H]3O2)O5)O4)OCC1	2.5 µg/mL
